// data source = the nanobody polyreactivity screen of Harvey et al. (2022)

# protocol: yeast display, Sf9 membrane polyspecificity reagent, FACS + sequencing; frameworks hold sequencing errors
experimental_endpoint: polyreactivity (PSR sort gate)

Known results for sequences:
[[record]]
record_sequence = "QVQLVESGGGLVQAGGSLRLSCAASGNTIVTNTMGWYRQAPGKERELVAAIDSGGDTYYADSVKGRFTISRDNAKNTVYLQMNSLKPEDTAVYYCAAVGDPNYFSNRRYEYWGQGTQVTVSS"
recorded_value = "low polyreactivity"

[[record]]
record_sequence = "QVQLVESGGGLVQAGGSLRLSCAASGSTFAINARGWYRQAPGKERELVAAISSSGSTNYADSVKGRFTISRDNAKITVYLQMNSLKPEDTAVYYCAATGYRVYGFEFGYWGQGTQVTVSS"
recorded_value = "low polyreactivity"

[[record]]
record_sequence = "QVQLVESGGGLVQAGGSLRLSCAASGRTFANYAMGWYRQAPGKERELVAAISWSGGSTYYADSVKGRFTISRDNAKNSVYLQMNSLKPEDTAVYYCAALAGRAYGYGYWGQGTQVTVSS"
recorded_value = "high polyreactivity"

[[record]]
record_sequence = "QVQLVDSVGGLVQAGGSLRLSCAASGRIFRYYAMGWYRQAPRKERELVAAITWSGGSTYYADSVKGRFTISRDNAKNTVYLQMNSLKPEDTAVYYCNADSVYAGFDYWGQGTQVTVSS"
recorded_value = "low polyreactivity"

[[record]]
record_sequence = "QVQLVESGGGLVQAGGSLRLSCAASGFTFRRNAMGWYRQAPGKERELVAAITRGGGSTYYADSVKGRFTISRDNAKNTVYLQMNSLKPEDTAVYYCAADGYYQYESWGQGTQVTVSS"
recorded_value = "high polyreactivity"


Lab note: next sequence to report on.
Prompt line: Request the reported polyreactivity (PSR sort gate) associated with QVQLVESGGGLVQAGGSLRLSCAASGSTFQPYAMGWYREAPGKERELVATITWRGGRTYYADSVKGRFTISRDNAKYTVYLQMNSLKPEDTAVYYCNVAYRGFRYYYWGQGTQVNVSS
Response line: high polyreactivity
